Entries and their koff
# target-entity: T1, human HER-2 protein (soluble / recombinant, used in SPR) (human, UniProt P04626 23-652)
# T1 construct: also called immobilized HER2 protein; recombinant HER-2
# experiment: SPR, immobilized HER2 protein
Use s⁻¹ as the unit, but write only the number.

Before answering, review these 2 worked examples.
binder: clone A3 Fab (P1A3, from the phage display Fab library) (Fab, V domains shown) VH: EVQLVQSGTEVKKPGASVRVSCKSSGYTFTSYYIHWVRQAPGQGLEWMAIINPGNGDTNYAQRFQGRVTMTRDTSTSTVYMELRSLRSDDTAVYFCAREIASYSGSYYDYWGQGTLVTVSS VL: QAVVTQEPSLSVSPGGTVTLTCGLSSGSVSTGHYASWYQQTPGQAPRTLFYNTNTRSSGVPDRFSGSIVGNKAALTITGAQADDESDYYCVLYVGDGIWVFGGGTKLTVLG
measured-result: 0.00416

binder: clone C5 Fab (P1C5, from the phage display Fab library) (Fab, V domains shown) VH: QVQLQESGPGLVKPSETLSLTCTVSGGSISSSSYYWGWIRQPPGKGLEWIGSIYYSGSTYYNPSLKSRVTISVDTSKNQFSLKLSSVTAADTAVYYCARYAPDSSGYLVAFDIWGQGTMVTVSS VL: QTVVTQEPSFSVSPGGTVTLTCGLSSGSVSTGYYPSWYQQTPGQAPRTLIYSTNSRSSGVPDRFSGSILGNKAALTITGAQADDESDYYCVLYMGSGISVFGGGTKLTVLG
measured-result: 0.00448

Kindly review the next binder as well.
Exam item: Query: koff; subject: PFB2 Fab (Fab, V domains shown, Printed entries run through CL and CH1 (Fab chains); Label B2 tied to PFB2 by inference) VH: EVQLVQSGAEVKKPGASVKVSCKASGYTFTSYGISWVRQAPGEGLEWMGWISAYNGNTNYAQKLQGRVTMTTDTSTSTAYMELRSLRSDDTAVYYCARDWGSSWSDYWGQGTLVTVSS VL: ETTLTQSPATLSLSPGERATLSCRASQSVRNNLAWYQHKPGQAPRLLIYYASTRATGIPDRFSGSGSGTDFTLTISRLEPEDFALYYCQHYGSSRTFGQGTKVEIKR
Marked response: 0.000177
